- experiment_notes: Cytotoxicity against mock infected human MT4 cells by MTT assay
measured_metric: CC50

Below, 3 compounds whose answers are already recorded.
> print(dat)
                                test.smiles  experimental.result
1  N#Cc1ccc(Nc2nccc(Nc3c(F)cc(-c4ccnc(F)c4F)cc3F)n2)cc1             > 286 µM
2  O=C1Nc2ccc(Cl)cc2[C@@](C#CC2CC2)(C(F)(F)F)O1            > 6.33 µM
3  Cc1cc(C#N)cc(C)c1Oc1nc(Nc2ccc(C#N)cc2)nc(N)c1Br             > 4.6 µM

From here, focus on the item given below.
Name the reported CC50 value associated with the compound "N#Cc1ccc(Nc2nccc(Nc3c(F)cc(-c4ccnc(C#N)c4F)cc3F)n2)cc1"
> 282 µM
